Readings of growth inhibition for the listed compounds
# procedure summary: NCI Yeast Anticancer Drug Screen. Data for the sgs1 mgt1 strain (AID 161);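 note: 0% = growth of cultures given vehicle only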
# test settings: S. cerevisiae sgs1 mgt1 strain, at 50.0 µM, active compounds read high
This is part of a sample that, as a whole, favours compounds with a hit. Of some 79,000 tested, about 15% had one in any assay.
Number in %, nothing else.

# compound, growth inhibition / %
records = [
    ("CC(C)(C)c1ccc2c(c1)C(=O)c1ccccc1C2=O", 0.45),
]

growth inhibition in this record for O=C(c1cc(=O)c2ccc(O)cc2o1)c1ccc(Cl)cc1Cl : 88

growth inhibition in this record for COc1cc([N+](=O)[O-])c2ncccc2c1Br : 25.1

growth inhibition in this record for CCN(CC)CCC(=O)Nc1ccc2sc3ccccc3c(=O)c2n1 : 31.8

---

# procedure summary: NCI Yeast Anticancer Drug Screen. Data for the wt1 strain (AID 149);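 note: 0% = growth of vehicle-treated wt1 cultures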
# test settings: S. cerevisiae wt1 strain (SPY 50644) growth inhibition; at 3.7 µM; active compounds read high
Compounds without any hit were thinned out: in the full panel of roughly 79,000, 15% have a hit.
metric name: growth inhibition (%)
Number in %, nothing else.

Please review the following examples before continuing.
# compound, growth inhibition / %
rows = [
    ("CCCCS(=O)(=O)Nc1ccc(Nc2c3ccccc3nc3ccccc23)c(OC)c1", -34),
    ("Clc1nc(Cl)nc(Nc2cccc3ccccc23)n1", 14),
    ("CC(C)C(=O)CC(Sc1ccc(N)cc1)c1ccccc1 (stereo not given)", -4),
    ("O=C1SS(=O)c2ccccc21 (stereo not given)", -2),
    ("NC(=S)N1N=C2c3ccccc3CC[C@H]2[C@@H]1c1ccc(Cl)cc1", 9),
    ("O=C(NCCCCN1CC2CCCC2C1)C(C1CCCCC1)C1CCCCC1 (stereo not given)", 6),
    ("C[N+](C)([O-])CCCNc1c2ccccc2nc2cccc([N+](=O)[O-])c12", 7),
    ("O=c1c2ccccc2nc(-c2ccc(Cl)cc2)n1O", 89),
]

growth inhibition in this record for O=C1C(=C2CCCC2)CCC1CN1CCCCC1 (stereo not given) : 12

growth inhibition in this record for O=C(/C=C/c1ccsc1)c1cccs1 : -41

---

# procedure summary: NCI Yeast Anticancer Drug Screen. Data for the rad50EPP+ strain (AID 151);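 note: 0% = growth of vehicle-treated control cultures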
# test settings: S. cerevisiae rad50 mutant strain, at 33.0 µM
The panel holds about 79,000 compounds, 15% with a hit somewhere; the sample as a whole holds those more often. Active and inactive are the calls of the source. Rule as the data show it: active = growth inhibition above about 70%; inactive = the rest.
Write down one outcome, taken from 1 for active, 0 for inactive

# compound, label
records = [
    ("O=C1Nc2ccc(Br)cc2C1=Nc1ccc(Cl)cc1", 0),
]

[in] Query: recorded result category for CC1(C)C(O)OC(O)C1(C)C (configuration not stated) in this test
[out] 0

[in] Query: recorded result category for CC(=O)CC(c1ccccc1)c1c(O)c2ccccc2oc1=O (configuration not stated) in this test
[out] 0

[in] Query: recorded result category for CC1(C)OC(=O)C(=Cc2ccc([N+](=O)[O-])s2)C(=O)O1 in this test
[out] 1

[in] Query: recorded result category for O=c1[nH]c2c([N+](=O)[O-])cccc2c2ccccc12 in this test
[out] 0

[in] Query: recorded result category for O=C1c2ccccc2C(=O)c2c(O)c(NCCNCCO)cc(O)c21 in this test
[out] 0

[in] Query: recorded result category for Cc1ccc(S(=O)(=O)Nc2cccc3cccnc23)cc1 in this test
[out] 0

[in] Query: recorded result category for CCC(=O)C1=C(O)c2cc(OC)ccc2CC1C(=O)OC (configuration not stated) in this test
[out] 1

[in] Query: recorded result category for CCN1CCC(O)(c2ccc(Oc3ccc(C)cc3)cc2)C(C(=O)c2ccc(Oc3ccc(C)cc3)cc2)C1 (configuration not stated) in this test
[out] 1

[in] Query: recorded result category for CCOC(=O)/C(=C\c1ccc(F)cc1)C(C)=O in this test
[out] 1

[in] Query: recorded result category for O=C(c1ccccc1)[C@H]1Nc2ccc(Cl)cc2[C@H]2OCCC[C@@H]12 in this test
[out] 0

[in] Query: recorded result category for CC(C(=O)N1C(=O)N(C(=O)C(C)C(O)c2ccccc2)C2CCCCC21)C(O)c1ccccc1 (configuration not stated) in this test
[out] 0

[in] Query: recorded result category for CCN(CC)CCNc1ccc2nc(C)n3c4ccc(OC)cc4c(=O)c1c23 in this test
[out] 0

[in] Query: recorded result category for O=C(Nc1ccc(Cl)cc1)c1cc2cc(N=Nc3ccccc3Cl)ccc2oc1=O in this test
[out] 1

[in] Query: recorded result category for CC(C)C(=O)CC(Sc1ccc(N)cc1)c1ccccc1 (configuration not stated) in this test
[out] 0

[in] Query: recorded result category for CC1=NN(C(=O)CC(=O)NC(=O)/C=C\c2ccccc2)C(=O)C1N=Nc1ccc([N+](=O)[O-])cc1 (configuration not stated) in this test
[out] 0

[in] Query: recorded result category for CCCCCCCCCCCCCCCCCCN(C)C(COC)COP(=O)([O-])OCC[N+](C)(C)C (configuration not stated) in this test
[out] 1

---

# procedure summary: NCI Yeast Anticancer Drug Screen. Data for the mec2-1 strain (AID 157)
# test settings: S. cerevisiae mec2-1 strain, at 50.0 µM (retest, dose inferred, filed as 5.0)
Compounds without any hit were thinned out: in the full panel of roughly 79,000, 15% have a hit. Calls of active or inactive are those of the source. No stated cut-off is given here; in the data, active means growth inhibition above about 70%; inactive means the rest.
Write down one outcome, taken from active, inactive

# molecule, label
records = [
    ("O=C(NCCCCN1CC2CCCC2C1)C(C1CCCCC1)C1CCCCC1 (centres undefined)", "active"),
    ("O=C(O)C1CCCCC1c1c2ccc(=O)cc-2oc2cc(O)ccc12 (centres undefined)", "active"),
    ("COC(=O)C(Cl)(Cl)N=Nc1c(Cl)cc(Cl)c(C)c1Cl", "active"),
]

Moving on to another molecule below.
[in] Query: recorded result category for N#CC1OB(O)c2ccccc21 (centres undefined) in this test
[out] inactive

---

# procedure summary: NCI Yeast Anticancer Drug Screen. Data for the rad14 strain (AID 159);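 note: 0% = growth of vehicle-treated control cultures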
# test settings: S. cerevisiae rad14 strain growth inhibition; at 33.0 µM; active compounds read high
Compounds without any hit were thinned out: in the full panel of roughly 79,000, 15% have a hit.
metric name: growth inhibition (%)
Number in %, nothing else.

# compound, metric name, observed measurement
rows = [
    ("Cc1c(Cl)c(C)c(Cl)c(O)c1Cl", "growth inhibition", 95),
    ("CCCCCCCCCCCCCCCCCCNc1nc(=O)n(C2CC(OP(=O)(O)OCC3OC(n4cc(F)c(=O)[nH]c4=O)CC3O)C(CO)O2)cc1F (stereo unspecified)", "growth inhibition", -4),
    ("O=C(O)c1ccccc1C(=O)OC1CCc2ccccc2C1 (stereo unspecified)", "growth inhibition", 11),
    ("CCN1CCC(O)(c2ccc(Oc3ccc(C)cc3)cc2)C(C(=O)c2ccc(Oc3ccc(C)cc3)cc2)C1 (stereo unspecified)", "growth inhibition", 95),
    ("N#CCC(=O)N/N=C(\\c1ccccc1)C(c1ccccc1)C1(O)C(=O)Nc2c(Cl)ccc(Cl)c21 (stereo unspecified)", "growth inhibition", 27),
    ("CC(CC/C(=N/O)c1ccccc1)(CC/C(=N\\O)c1ccccc1)[N+](=O)[O-] (stereo unspecified)", "growth inhibition", -3),
]

growth inhibition in this record for COc1cc(C(=O)C=O)cc(OC)c1OC : 9

growth inhibition in this record for COc1ccc(N=c2cc(-c3ccccc3)oc3ccccc23)cc1 : -2

growth inhibition in this record for BrC1C2CCC3OC3C12 (stereo unspecified) : 99

growth inhibition in this record for C[C@H](CCC1=NC(C)(C)CO1)C1CCC2[C@@H]3C(O)C[C@@H]4CC(O)CC[C@]4(C)C3CC[C@@]21C (stereo partly specified) : 99

growth inhibition in this record for Cn1c(-c2ccc(/C=N\N3CCN(/N=C/c4ccc(-c5c[n+]6ccsc6n5C)cc4)CC3)cc2)c[n+]2ccsc12 : 14

growth inhibition in this record for CCOC(=O)CC1(C)/C(=N\Nc2ccc([N+](=O)[O-])cc2[N+](=O)[O-])CCC2C1CCC1(C)C(C(C)CCCC(C)C)CCC21 (stereo unspecified) : -3

growth inhibition in this record for COC(=O)C(=O)CC(=O)c1cccc(OC)c1 : 67

growth inhibition in this record for CCCCOc1ccc2nc(C)cc(N=[N+]=[N-])c2c1 : 48

growth inhibition in this record for O=[N+]([O-])c1ccc2nc(=S)[nH]n2c1 : 12

growth inhibition in this record for O=C1Nc2ccc(Br)cc2C1=Nc1ccc(Cl)cc1 : -8

growth inhibition in this record for CCS(=O)(=O)Nc1ccc(Nc2c3ccccc3nc3ccccc23)c(OC)c1 : 5

growth inhibition in this record for CC(C)C(=O)CC(Sc1ccc(N)cc1)c1ccccc1 (stereo unspecified) : 25

growth inhibition in this record for CC(C)OC(=O)NNc1cccc(Cl)c1 : 98

growth inhibition in this record for O=C(CN(c1ccccc1)c1ccccc1)n1nnc2ccccc21 : 2

growth inhibition in this record for CC(=O)/C=C/c1cc([N+](=O)[O-])ccc1O : 97

growth inhibition in this record for O=c1cccccc1[O-].O=c1cccccc1[O-].O=c1cccccc1[O-].[Eu+3] : 98

growth inhibition in this record for CC1=CC(C)(C)SC(SSSC2=NC(C)=CC(C)(C)S2)=N1 : 8
